Every entry's value here was drawn from patent US6905854B2.

assay: Kinetic assay of purified DAOCS with penicillin G (standard penicillin G assay, HPLC of cephalosporin G); type: biochemical; details: for penicillin G; 20 μg purified DAOCS, 1 mM α-ketoglutarate, 30° C.
Assay endpoint: kcat

**Query** Which kcat is reported for this molecule? YS53: mutated penicillin expandase (DAOCS) with substitution C281Y (protein, UniProt P18548 1-311, looked up, variant C281Y) Deacetoxycephalosporin C …: MDTTVPTFSLAELQQGLHQDEFRRCLRDKGLFYLTDCGLTDTELKSAKDLVIDFFEHGSEAEKRAVTSPVPTMRRGFTGLESESTAQITNTGSYSDYSMCYSMGTADNLFPSGDFERIWTQYFDRQYTASRAVAREVLRATGTEPDGGVEAFLDCEPLLRFRYFPQVPEHRSAEEQPLRMAPHYDLSMVTLIQQTPCANGFVSLQAEVGGAFTDLPYRPDAVLVFCGAIATLVTGGQVKAPRHHVAAPRRDQIAGSSRTSSVFFLRPNADFTFSVPLAREYGFDVSLDGETATFQDWIGGNYVNIRRTSKA
**Result** 0.0744 ± 0.0033 S^−1

**Query** Which kcat is reported for this molecule? EC12: mutated penicillin expandase (DAOCS) with substitution L277Q (protein, UniProt P18548 1-311, looked up, variant L277Q) Deacetoxycephalosporin C …: MDTTVPTFSLAELQQGLHQDEFRRCLRDKGLFYLTDCGLTDTELKSAKDLVIDFFEHGSEAEKRAVTSPVPTMRRGFTGLESESTAQITNTGSYSDYSMCYSMGTADNLFPSGDFERIWTQYFDRQYTASRAVAREVLRATGTEPDGGVEAFLDCEPLLRFRYFPQVPEHRSAEEQPLRMAPHYDLSMVTLIQQTPCANGFVSLQAEVGGAFTDLPYRPDAVLVFCGAIATLVTGGQVKAPRHHVAAPRRDQIAGSSRTSSVFFLRPNADFTFSVPQARECGFDVSLDGETATFQDWIGGNYVNIRRTSKA
**Result** 0.1036 ± 0.0012 S^−1
